B1: EEHEE_rd4_0003 (parent)
chain: KKVTINGVEIKFNNPEEAVKFALELAKRLNLRIEFHGDQIKIE

Variants of: B1
PROTOCOL_NOTES: folding stability dG (cDNA display proteolysis); higher = more stable
SETTINGS: PBS, room temperature
Please use 1 (yes) whenever folding stability dG is not below 2 kcal/mol, and 0 (no) whenever it is.

VARIANT_STRING | CLASS_ASSIGNMENT
K2T | 1 (yes)
F35N | 0 (no)
A18W | 1 (yes)
N14K | 1 (yes)
V19D | 0 (no)
K41A | 1 (yes)
N30C | 1 (yes)

Reference source for all entries: the MegaScale stability set (Tsuboyama et al. 2023)
